Collected IC50 (μM) KB (growth) values appear next to each entry.
# Tested on: KB cells
# ASSAY_NOTES: Cytotoxicity in KB cells, growth during two population doublings (crystal violet)
# Assay type: cell-based
# RECORDED_CONDITIONS: human
MEASURED_ENDPOINT: IC50 (μM) KB (growth)

- COMPOUND: "Nc1nc2c(ncn2/C=C2/CC2(CO)CO)c(=O)[nH]1 [Compound 1c]"
  EXPERIMENTAL_VALUE: ">100 µM"
- COMPOUND: "Cc1cn(/C=C2/CC2(CO)CO)c(=O)[nH]c1=O [Compound 1f]"
  EXPERIMENTAL_VALUE: ">100 µM"
- COMPOUND: "Nc1ccn(/C=C2/CC2(CO)CO)c(=O)n1 [Compound 1e]"
  EXPERIMENTAL_VALUE: ">100 µM"
- COMPOUND: "COc1nc(N)nc2c1ncn2/C=C1/CC1(CO)CO [Compound 1g]"
  EXPERIMENTAL_VALUE: ">100 µM"
- COMPOUND: "Nc1ncnc2c1ncn2/C=C1/CC1(CO)CO [Compound 1a]"
  EXPERIMENTAL_VALUE: ">100 µM"
- COMPOUND: "Nc1nc2c(ncn2/C=C2\\CC2(CO)CO)c(=O)[nH]1 [Compound 2c]"
  EXPERIMENTAL_VALUE: ">100 µM"
- COMPOUND: "Nc1nc(N)c2ncn(/C=C3/CC3(CO)CO)c2n1 [Compound 1o]"
  EXPERIMENTAL_VALUE: ">100 µM"

====

# System: HCMV
# ASSAY_NOTES: HCMV plaque reduction assay in HFF cells
# Format: cell-based, human cytomegalovirus (HCMV)
# RECORDED_CONDITIONS: Human betaherpesvirus 5, HFF host cells

- SUBSTANCE_SMILES: "Nc1nc(N)c2ncn(/C=C3/CC3(CO)CO)c2n1"
  TARGET_UNDER_TEST: "HCMV"
  UNIT_TEXT: "µM"
  CENSORING_SIGN: "="
  IC50: 15
- SUBSTANCE_SMILES: "Cc1cn(/C=C2/CC2(CO)CO)c(=O)[nH]c1=O"
  TARGET_UNDER_TEST: "HCMV"
  UNIT_TEXT: "µM"
  CENSORING_SIGN: ">"
  IC50: 100
- SUBSTANCE_SMILES: "Nc1ncnc2c1ncn2/C=C1/CC1(CO)CO"
  TARGET_UNDER_TEST: "HCMV"
  UNIT_TEXT: "µM"
  CENSORING_SIGN: "="
  IC50: 3.6
- SUBSTANCE_SMILES: "Nc1nc2c(ncn2/C=C2\\CC2(CO)CO)c(=O)[nH]1"
  TARGET_UNDER_TEST: "HCMV"
  UNIT_TEXT: "µM"
  CENSORING_SIGN: ">"
  IC50: 100
- SUBSTANCE_SMILES: "Nc1nc2c(ncn2/C=C2/CC2(CO)CO)c(=O)[nH]1"
  TARGET_UNDER_TEST: "HCMV"
  UNIT_TEXT: "µM"
  CENSORING_SIGN: "="
  IC50: 0.46
